tested on: PSMA + PC-3 PiP and PSMA − PC-3 flu tumor xenografts; conditions: 21 H post-injection
I'd appreciate it if you could supply Biodistribution: kidney values for the items below.
Please respond with the number in % ID/g and leave the unit unwritten.

QUERY: Given the molecule N=C(N)NCc1ccc(C(=O)NCCCCC(NC(=O)CCCCCCC(=O)NCCCC[C@H](NC(=O)N[C@@H](CCC(=O)O)C(=O)O)C(=O)O)C(=O)O)cc1[131I] (some centres unmarked) [[^131I] labeled PSMA-904] , what is its reported Biodistribution: kidney?
RESULT: 3.03

QUERY: Given the molecule N=C(N)NCc1ccc(C(=O)NCCCC[C@H](NC(=O)N[C@@H](CCC(=O)O)C(=O)O)C(=O)O)cc1[131I] [[^131I] labeled 7 (PSMA-620)] , what is its reported Biodistribution: kidney?
RESULT: 7.52

QUERY: Given the molecule O=C(O)CC[C@H](NC(=O)N[C@@H](CCC(=O)NCCc1ccc([211At])cc1)C(=O)O)C(=O)O [[^211At]HS-549] , what is its reported Biodistribution: kidney?
RESULT: 2.60

QUERY: Given the molecule O=C(O)CC[C@H](NC(=O)N[C@@H](CCC(=O)NCCc1ccc([131I])cc1)C(=O)O)C(=O)O [[^131I]HS-549] , what is its reported Biodistribution: kidney?
RESULT: 3.13

QUERY: Given the molecule N=C(N)NCc1ccc(C(=O)NCCCCC(NC(=O)CCCCCCC(=O)NCCCC[C@H](NC(=O)N[C@@H](CCC(=O)O)C(=O)O)C(=O)O)C(=O)O)cc1[211At] (some centres unmarked) [[^211At] labeled PSMA-904] , what is its reported Biodistribution: kidney?
RESULT: 4.38
